# SYSTEM: T1, human tissue factor pathway inhibitor (TFPI) (human, UniProt P10646 29-304, limits assumed)
# T1 construct: bought; also called hTFPI; human TFPI
# T1 sequence (looked up): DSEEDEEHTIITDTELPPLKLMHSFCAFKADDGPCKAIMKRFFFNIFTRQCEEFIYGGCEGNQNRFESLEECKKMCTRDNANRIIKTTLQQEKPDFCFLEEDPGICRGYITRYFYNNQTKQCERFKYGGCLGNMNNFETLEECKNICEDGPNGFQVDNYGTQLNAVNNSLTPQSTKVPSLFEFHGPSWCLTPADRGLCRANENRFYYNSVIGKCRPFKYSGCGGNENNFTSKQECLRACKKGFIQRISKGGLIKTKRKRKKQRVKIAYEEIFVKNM
# TEST DETAILS: competitive ELISA
Entry flag: class 1 if variant/HC_D62R reaches 20 ratio; class 0 if it does not.

| BINDER | CAT |
| --- | --- |
| 4B7 HC N32D+D62R+H107M+Y112D/LC F31I+S32R+N35I+D97T (Fab, V domains shown) VH: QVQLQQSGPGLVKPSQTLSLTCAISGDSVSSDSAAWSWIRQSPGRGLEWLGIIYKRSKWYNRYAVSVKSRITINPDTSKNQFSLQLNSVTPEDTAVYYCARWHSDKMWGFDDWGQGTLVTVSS VL: DIVMTQSPLSLPVTPGEPASISCRSSQSLVIRDGITYLNWYLQKPGQSPQLLIYKGSNRASGVPDRFSGSGSGTDFTLKISRVEAEDVGVYYCQQYTSYPLTFGQGTKVEIKR | class 0 |
| 4B7 HC N32D+D62Q+H107M+Y112D/LC N35I (Fab, V domains shown) VH: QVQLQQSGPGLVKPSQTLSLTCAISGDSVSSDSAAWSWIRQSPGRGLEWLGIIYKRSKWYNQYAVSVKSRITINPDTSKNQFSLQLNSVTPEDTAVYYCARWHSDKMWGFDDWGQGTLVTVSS VL: DIVMTQSPLSLPVTPGEPASISCRSSQSLVFSDGITYLNWYLQKPGQSPQLLIYKGSNRASGVPDRFSGSGSGTDFTLKISRVEAEDVGVYYCQQYDSYPLTFGQGTKVEIKR | class 1 |
| 4B7 HC D62R+H107M+Y112D/LC F31M+D33F+N35I (Fab, V domains shown) VH: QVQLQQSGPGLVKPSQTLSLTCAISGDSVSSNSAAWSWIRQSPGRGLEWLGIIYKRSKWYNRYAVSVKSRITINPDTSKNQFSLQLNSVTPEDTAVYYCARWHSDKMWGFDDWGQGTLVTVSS VL: DIVMTQSPLSLPVTPGEPASISCRSSQSLVMSFGITYLNWYLQKPGQSPQLLIYKGSNRASGVPDRFSGSGSGTDFTLKISRVEAEDVGVYYCQQYDSYPLTFGQGTKVEIKR | class 1 |
| 4B7 HC N32D+D62R+H103D+H107M+Y112D/LC S32R (Fab, V domains shown) VH: QVQLQQSGPGLVKPSQTLSLTCAISGDSVSSDSAAWSWIRQSPGRGLEWLGIIYKRSKWYNRYAVSVKSRITINPDTSKNQFSLQLNSVTPEDTAVYYCARWDSDKMWGFDDWGQGTLVTVSS VL: DIVMTQSPLSLPVTPGEPASISCRSSQSLVFRDGNTYLNWYLQKPGQSPQLLIYKGSNRASGVPDRFSGSGSGTDFTLKISRVEAEDVGVYYCQQYDSYPLTFGQGTKVEIKR | class 0 |
| 4B7 HC N32D+D62R+Y112D/LC S32R+D33F+N35I+D97T+S98H (Fab, V domains shown) VH: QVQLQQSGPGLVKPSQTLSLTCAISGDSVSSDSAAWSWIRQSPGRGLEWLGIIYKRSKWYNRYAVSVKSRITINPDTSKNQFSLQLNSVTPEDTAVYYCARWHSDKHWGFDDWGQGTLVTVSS VL: DIVMTQSPLSLPVTPGEPASISCRSSQSLVFRFGITYLNWYLQKPGQSPQLLIYKGSNRASGVPDRFSGSGSGTDFTLKISRVEAEDVGVYYCQQYTHYPLTFGQGTKVEIKR | class 0 |
| 4B7 HC N32D+D62R+H107M+Y112D/LC F31M+D33R+N35I (Fab, V domains shown) VH: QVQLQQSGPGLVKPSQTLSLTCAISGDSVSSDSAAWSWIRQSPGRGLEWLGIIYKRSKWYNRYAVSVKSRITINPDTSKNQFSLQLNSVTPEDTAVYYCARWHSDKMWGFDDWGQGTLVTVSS VL: DIVMTQSPLSLPVTPGEPASISCRSSQSLVMSRGITYLNWYLQKPGQSPQLLIYKGSNRASGVPDRFSGSGSGTDFTLKISRVEAEDVGVYYCQQYDSYPLTFGQGTKVEIKR | class 1 |

Taken from patent USRE47150.
